From: patent US20200291018A1

Target: FLT3 (Homo sapiens, UniProt P36888)
Sequence (P36888 27-993): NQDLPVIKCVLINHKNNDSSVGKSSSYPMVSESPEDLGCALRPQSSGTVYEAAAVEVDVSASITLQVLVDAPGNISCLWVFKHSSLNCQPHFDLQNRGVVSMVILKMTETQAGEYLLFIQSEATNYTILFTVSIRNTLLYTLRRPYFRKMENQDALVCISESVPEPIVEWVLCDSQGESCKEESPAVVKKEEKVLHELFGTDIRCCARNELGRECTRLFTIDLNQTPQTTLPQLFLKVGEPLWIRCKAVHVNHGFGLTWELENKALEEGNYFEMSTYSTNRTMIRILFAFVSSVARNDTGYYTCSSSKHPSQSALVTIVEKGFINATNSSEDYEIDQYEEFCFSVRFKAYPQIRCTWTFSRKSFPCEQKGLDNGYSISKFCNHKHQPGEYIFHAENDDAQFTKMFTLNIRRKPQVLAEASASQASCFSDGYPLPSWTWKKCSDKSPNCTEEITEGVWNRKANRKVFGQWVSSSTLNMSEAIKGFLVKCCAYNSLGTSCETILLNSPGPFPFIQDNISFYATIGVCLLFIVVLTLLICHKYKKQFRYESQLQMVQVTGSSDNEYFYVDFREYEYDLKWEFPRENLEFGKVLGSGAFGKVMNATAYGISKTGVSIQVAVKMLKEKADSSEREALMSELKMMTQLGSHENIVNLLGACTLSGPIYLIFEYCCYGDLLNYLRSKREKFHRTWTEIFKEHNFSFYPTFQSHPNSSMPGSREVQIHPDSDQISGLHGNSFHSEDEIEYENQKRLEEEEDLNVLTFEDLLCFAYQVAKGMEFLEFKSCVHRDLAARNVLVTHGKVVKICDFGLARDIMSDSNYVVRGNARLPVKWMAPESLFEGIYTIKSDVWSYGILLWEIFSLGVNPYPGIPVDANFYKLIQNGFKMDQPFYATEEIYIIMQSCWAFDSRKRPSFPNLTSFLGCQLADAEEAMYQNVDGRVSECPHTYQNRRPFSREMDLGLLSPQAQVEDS
pIC50: −log10 of the molar value. Structures can show the parent of a compound that is named as a salt.
measured_quantity: pIC50

Answered examples (6):
CCOc1ncc(CC2CCN(C)CC2)c2nc(N[C@@H](C)CC)ncc12 [Compound 253]    5.00 to 6.00
CCCC(C)Nc1ncc2c(OC3CCS(=O)(=O)CC3)ncc([C@H]3CC[C@H](O)CC3)c2n1 (some centres unmarked) [Compound 141]    5.00 to 6.00
CCCCNc1ncc2c(NCc3ccc(F)cc3)ncc([C@H]3CC[C@H](O)CC3)c2n1 [Compound 103, hydrochloride]    ≥ 7.00
C[C@@H](CC(F)(F)F)Nc1ncc2c(O[C@H]3C[C@@H](O)C3)ncc([C@H]3CC[C@@](C)(O)CC3)c2n1 [Compound 424]    6.00 to 7.00
CCCCNc1ncc2c(Oc3ccc(F)cc3)ncc([C@H]3CC[C@H](O)CC3)c2n1 [Compound 115]    ≥ 7.00
COC[C@H](C)Nc1ncc2c(OC3C[C@@H](C)N(C)[C@H](C)C3)ncc([C@H]3CC[C@H](O)CC3)c2n1 (some centres unmarked) [Compound 388]    5.00 to 6.00

Value of measured pIC50 for the entry CCCC(C)Nc1ncc2c(OC3CCC(OC)CC3)ncc([C@H]3CC[C@H](O)CC3)c2n1 (some centres unmarked) [Compound 147] : 5.00 to 6.00

Value of measured pIC50 for the entry CCCCNc1cc2c(cn1)c(OC1CCNCC1)ncc2[C@H]1CC[C@H](O)CC1 [Compound 107] : ≥ 7.00
